Attribution: paper PMC3678512

system name: NOD1 (Homo sapiens, UniProt Q9Y239)
Construct: luciferase production in HEK 293T cells, which has endogenous NOD1 levels; endogenous in cells; host or cells: HEK 293T
Sequence (Q9Y239 whole entry): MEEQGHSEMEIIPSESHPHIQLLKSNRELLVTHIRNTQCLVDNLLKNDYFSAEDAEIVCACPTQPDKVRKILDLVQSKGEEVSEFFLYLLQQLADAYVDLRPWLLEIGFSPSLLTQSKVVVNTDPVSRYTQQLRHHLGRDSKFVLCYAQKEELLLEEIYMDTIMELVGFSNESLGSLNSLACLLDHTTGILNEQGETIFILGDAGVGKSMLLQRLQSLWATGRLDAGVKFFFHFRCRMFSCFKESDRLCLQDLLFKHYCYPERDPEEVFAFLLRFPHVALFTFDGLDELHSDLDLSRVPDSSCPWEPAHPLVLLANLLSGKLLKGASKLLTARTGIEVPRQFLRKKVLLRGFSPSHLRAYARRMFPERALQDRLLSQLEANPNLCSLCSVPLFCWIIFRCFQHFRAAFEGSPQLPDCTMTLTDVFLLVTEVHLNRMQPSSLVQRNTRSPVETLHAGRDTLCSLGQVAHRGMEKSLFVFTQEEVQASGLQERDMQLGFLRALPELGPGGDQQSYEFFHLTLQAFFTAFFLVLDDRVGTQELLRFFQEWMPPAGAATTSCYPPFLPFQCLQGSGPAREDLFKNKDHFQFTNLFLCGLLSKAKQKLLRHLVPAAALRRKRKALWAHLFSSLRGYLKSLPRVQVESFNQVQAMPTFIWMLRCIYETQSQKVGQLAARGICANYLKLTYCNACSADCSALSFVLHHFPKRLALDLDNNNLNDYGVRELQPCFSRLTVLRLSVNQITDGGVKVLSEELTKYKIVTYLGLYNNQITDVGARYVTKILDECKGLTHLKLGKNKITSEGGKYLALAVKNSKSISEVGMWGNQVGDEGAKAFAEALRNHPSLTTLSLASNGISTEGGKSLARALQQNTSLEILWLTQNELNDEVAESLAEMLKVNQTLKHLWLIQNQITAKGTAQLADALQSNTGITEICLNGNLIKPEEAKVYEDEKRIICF
run description: γ-tri-DAP-stimulated luciferase production in HEK 293T cells (NF-κB-linked reporter assay)
Format: cell-based
experimental conditions: HEK 293T cells with endogenous NOD1, NF-κB-linked reporter; read-out: IC50, inhibition of γ-tri-DAP-stimulated luciferase production
pIC50: −log10 of the molar value.
reported property: pIC50

> print(dat)
                                 cpd.smiles  reported.property  test.result
1  C/C=C/Cn1c(SCCCc2ccccc2)nc2c1c(=O)[nH]c(=O)n2C              pIC50         5.81
